molecular target: hERG channel (Homo sapiens); assay: hERG electrophysiology, automated whole-cell patch clamp (Patchliner); details: read-out: hERG IC50; CHO-K1 cells stably expressing hERG; whole-cell current inhibition, Hill fit
Sequence (Q12809 whole entry): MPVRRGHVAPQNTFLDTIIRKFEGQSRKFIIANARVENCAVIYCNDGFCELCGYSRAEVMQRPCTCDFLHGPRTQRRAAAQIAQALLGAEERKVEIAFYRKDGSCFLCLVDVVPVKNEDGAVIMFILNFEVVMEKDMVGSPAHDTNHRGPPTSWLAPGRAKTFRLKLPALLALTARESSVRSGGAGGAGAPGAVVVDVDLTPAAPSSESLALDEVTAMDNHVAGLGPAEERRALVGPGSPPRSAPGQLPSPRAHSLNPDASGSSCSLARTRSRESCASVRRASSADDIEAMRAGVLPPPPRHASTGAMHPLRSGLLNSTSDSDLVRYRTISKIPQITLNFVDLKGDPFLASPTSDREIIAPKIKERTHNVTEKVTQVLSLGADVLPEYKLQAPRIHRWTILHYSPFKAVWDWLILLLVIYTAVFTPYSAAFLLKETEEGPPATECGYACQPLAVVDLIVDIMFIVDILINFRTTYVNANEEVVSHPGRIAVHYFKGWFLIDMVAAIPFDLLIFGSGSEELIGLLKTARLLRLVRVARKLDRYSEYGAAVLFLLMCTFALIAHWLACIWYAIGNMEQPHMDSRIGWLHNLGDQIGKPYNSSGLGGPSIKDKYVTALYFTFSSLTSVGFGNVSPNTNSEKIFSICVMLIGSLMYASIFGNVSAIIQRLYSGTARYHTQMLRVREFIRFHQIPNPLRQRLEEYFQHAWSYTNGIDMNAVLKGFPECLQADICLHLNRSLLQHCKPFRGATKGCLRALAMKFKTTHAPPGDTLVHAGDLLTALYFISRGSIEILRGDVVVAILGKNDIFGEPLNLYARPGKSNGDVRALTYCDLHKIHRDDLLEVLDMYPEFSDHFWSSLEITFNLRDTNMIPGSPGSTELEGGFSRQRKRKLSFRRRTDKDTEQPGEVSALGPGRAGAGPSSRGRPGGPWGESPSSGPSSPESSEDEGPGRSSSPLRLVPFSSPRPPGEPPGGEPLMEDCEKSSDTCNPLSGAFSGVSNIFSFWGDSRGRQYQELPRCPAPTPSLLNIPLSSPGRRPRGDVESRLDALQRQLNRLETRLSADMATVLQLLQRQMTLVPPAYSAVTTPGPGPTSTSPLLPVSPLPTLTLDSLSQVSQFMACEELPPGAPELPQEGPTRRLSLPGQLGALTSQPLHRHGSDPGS
RECORDED ENDPOINT: IC50

Exercise: Answer with the recorded IC50 for the molecule listed here: C[C@@H]1[C@H](c2c(O)ccc(Cl)c2Cl)CC(=O)N1C1CNC1
Solution: > 30 µM

====

target: Kv1.3 potassium channel (Homo sapiens); construct: expressed in transfected cells; experiment: Kv1.3 potassium channel blocker activity, automated whole-cell patch clamp (Patchliner); format: cell-based; settings: CHO-K1 cells stably expressing Kv1.3; whole-cell current inhibition, Hill fit; read-out: Kv1.3 IC50
Sequence (P22001 whole entry): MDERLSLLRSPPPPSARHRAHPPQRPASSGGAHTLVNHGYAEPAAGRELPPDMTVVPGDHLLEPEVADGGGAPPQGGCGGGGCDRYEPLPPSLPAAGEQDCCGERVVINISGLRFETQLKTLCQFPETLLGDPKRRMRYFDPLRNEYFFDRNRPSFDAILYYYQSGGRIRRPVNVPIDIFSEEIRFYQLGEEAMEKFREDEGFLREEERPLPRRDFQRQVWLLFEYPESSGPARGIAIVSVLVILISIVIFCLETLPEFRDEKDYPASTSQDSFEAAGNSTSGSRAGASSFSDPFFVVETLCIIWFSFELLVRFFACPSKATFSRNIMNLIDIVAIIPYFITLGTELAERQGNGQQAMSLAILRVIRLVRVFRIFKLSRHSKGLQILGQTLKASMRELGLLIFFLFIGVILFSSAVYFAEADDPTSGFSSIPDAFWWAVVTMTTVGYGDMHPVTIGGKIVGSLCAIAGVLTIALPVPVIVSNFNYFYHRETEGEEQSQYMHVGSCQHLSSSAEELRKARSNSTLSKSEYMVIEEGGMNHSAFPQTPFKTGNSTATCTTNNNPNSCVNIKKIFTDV
List of IC50 values.

C[C@@H](O)CN1C[C@H](c2c(O)ccc(Cl)c2Cl)CC1=O = < 0.1 µM

Exercise: Answer with the recorded IC50 for the molecule listed here: O=C1C[C@@H](c2c(O)ccc(Cl)c2Cl)CN1C1COC1
Solution: < 0.1 µM

Exercise: Answer with the recorded IC50 for the molecule listed here: O=C1CO[C@H](c2c(O)ccc(Cl)c2Cl)CN1CCO (single isomer, unassigned; isomer 1)
Solution: < 1 µM

Exercise: Answer with the recorded IC50 for the molecule listed here: CC1[C@@H](c2c(O)ccc(Cl)c2Cl)CC(=O)N1C1CNC1 (stereo in doubt)
Solution: < 1 µM

====

List of IC50 values.
target: hERG channel (Homo sapiens); assay: cell-based

Cn1cc(N2C[C@H](c3c(O)ccc(Cl)c3Cl)CC2=O)nn1 = > 10 µM
O=C1N[C@H](c2c(O)ccc(Cl)c2Cl)CCN1[C@@H]1CCNC1 (single isomer, unassigned) = > 10 µM

Exercise: Answer with the recorded IC50 for the molecule listed here: O=C1N[C@@H](c2c(O)ccc(Cl)c2Cl)CN1C[C@@H](O)CO
Solution: > 100 µM

Exercise: Answer with the recorded IC50 for the molecule listed here: O=C1C[C@@H](c2c(O)ccc(Cl)c2Cl)CN1CCO
Solution: > 30 µM

====

molecular target: Kv1.3 potassium channel (Homo sapiens); construct: expressed in transfected cells; assay: Kv1.3 potassium channel blocker activity, automated whole-cell patch clamp (Patchliner); format: cell-based; details: CHO-K1 cells stably expressing Kv1.3; whole-cell current inhibition, Hill fit; read-out: Kv1.3 IC50
List of IC50 values.

Below: 5 compounds and their reported IC50.
Cn1cc(N2C[C@H](c3c(O)ccc(Cl)c3Cl)NC2=O)cn1 = < 100 nM
CC1[C@@H](c2c(O)ccc(Cl)c2Cl)CC(=O)N1C[C@H](O)CO (stereo in doubt) = < 10000 nM
C[C@@H](O)CCN1C[C@H](c2c(O)ccc(Cl)c2Cl)CC1=O (single isomer, unassigned; isomer 1) = < 100 nM
Cn1cnc(N2C[C@H](c3c(O)ccc(Cl)c3Cl)CC2=O)c1 = < 1000 nM
Cn1cc(CN2C[C@H](c3c(O)ccc(Cl)c3Cl)CC2=O)cn1 = < 1000 nM

Exercise: Answer with the recorded IC50 for the compound listed here: N[C@@H]1C(=O)N(C2CNC2)C[C@H]1c1c(O)ccc(Cl)c1Cl
Solution: < 10000 nM

Exercise: Answer with the recorded IC50 for the compound listed here: O=C1CO[C@@H](c2c(O)ccc(Cl)c2Cl)CN1CCO (single isomer, unassigned; isomer 2)
Solution: < 30000 nM

Exercise: Answer with the recorded IC50 for the compound listed here: O=C1C[C@@H](c2c(O)ccc(Cl)c2Cl)CN1c1ccncc1
Solution: < 100 nM

Exercise: Answer with the recorded IC50 for the compound listed here: CC1[C@H](c2c(O)ccc(Cl)c2Cl)CC(=O)N1C[C@H](O)CO (stereo in doubt)
Solution: < 100 nM

Exercise: Answer with the recorded IC50 for the compound listed here: CC1[C@H](c2c(O)ccc(Cl)c2Cl)CC(=O)N1CCO (stereo in doubt)
Solution: < 100 nM
